Entries annotated with measured kon
target: T1, biotinylated cTfR1 (Acro Bio p/n TFR-C8249) (cynomolgus monkey, UniProt H9EXL1 89-760 (rhesus entry), biotinylated; site not stated); assay: BLI, Octet RH16, biotinylated TfR1 on streptavidin sensor; Fab-siRNA conjugate
T1 construct: Bought reagent of the BLI assay
T1 sequence (chain, as listed by the source): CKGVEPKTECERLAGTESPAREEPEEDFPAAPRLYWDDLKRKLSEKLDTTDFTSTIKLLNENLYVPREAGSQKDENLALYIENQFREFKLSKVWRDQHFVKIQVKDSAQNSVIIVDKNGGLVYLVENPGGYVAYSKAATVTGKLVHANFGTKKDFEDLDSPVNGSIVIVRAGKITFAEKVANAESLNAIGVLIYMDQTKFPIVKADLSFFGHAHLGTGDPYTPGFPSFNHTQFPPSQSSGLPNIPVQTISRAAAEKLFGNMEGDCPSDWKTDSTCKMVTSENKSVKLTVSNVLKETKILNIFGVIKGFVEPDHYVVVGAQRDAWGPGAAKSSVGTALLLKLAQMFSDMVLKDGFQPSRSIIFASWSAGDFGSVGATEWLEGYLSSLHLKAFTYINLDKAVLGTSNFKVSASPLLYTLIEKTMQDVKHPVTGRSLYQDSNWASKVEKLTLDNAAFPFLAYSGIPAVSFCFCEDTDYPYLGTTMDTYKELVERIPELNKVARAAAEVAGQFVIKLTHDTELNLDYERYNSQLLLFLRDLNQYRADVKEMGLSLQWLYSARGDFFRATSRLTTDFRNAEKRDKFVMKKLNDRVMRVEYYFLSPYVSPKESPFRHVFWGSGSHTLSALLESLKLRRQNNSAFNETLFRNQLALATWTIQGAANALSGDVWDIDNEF
Give the value, in units of M⁻¹ s⁻¹, as a plain number.

Worked cases, kon given:
Binder	Measurement label	Reported
Fab0069-siRNA conjugate (Fab, V domains shown, siRNA-linker on a reduced cysteine; chain and residue not stated, also called Fab0069 (BLI conjugate columns)) VH: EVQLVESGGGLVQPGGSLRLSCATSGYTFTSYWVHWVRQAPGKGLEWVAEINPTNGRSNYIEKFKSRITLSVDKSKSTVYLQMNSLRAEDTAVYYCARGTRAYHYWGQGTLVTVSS VL: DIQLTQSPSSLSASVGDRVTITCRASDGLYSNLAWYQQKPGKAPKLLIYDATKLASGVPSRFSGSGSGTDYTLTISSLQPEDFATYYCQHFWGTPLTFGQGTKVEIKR	kon	256000
Fab0070-siRNA conjugate (Fab, V domains shown, siRNA-linker on a reduced cysteine; chain and residue not stated, also called Fab0070 (BLI conjugate columns)) VH: EVQLVESGGGLVQPGGSLRLSCATSGFTFTSYWMHWVRQAPGKGLEWVAEINPTNGRTNYIEKFKSRITLSVDKSKSTVYLQMNSLRAEDTAVYYCARGTRAYHYWGQGTLVTVSS VL: DIQLTQSPSSLSASVGDRVTITCRASDKLYSNLAWYQQKPGKAPKLLIYDATLLASGVPSRFSGSGSGTDYTLTISSLQPEDFATYYCQHFWGTPLTFGQGTKVEIKR	kon	244000
Fab0068-siRNA conjugate (Fab, V domains shown, siRNA-linker on a reduced cysteine; chain and residue not stated, also called Fab0068 (BLI conjugate columns)) VH: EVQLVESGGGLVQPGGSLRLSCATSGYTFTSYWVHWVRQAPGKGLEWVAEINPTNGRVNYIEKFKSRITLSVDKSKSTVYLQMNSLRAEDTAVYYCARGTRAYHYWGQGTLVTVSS VL: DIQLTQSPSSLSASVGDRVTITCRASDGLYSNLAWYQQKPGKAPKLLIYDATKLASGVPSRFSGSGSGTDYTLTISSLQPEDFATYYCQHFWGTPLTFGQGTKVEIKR	kon	249000
Fab0061-siRNA conjugate (Fab, V domains shown, siRNA-linker on a reduced cysteine; chain and residue not stated, also called Fab0061 (BLI conjugate columns)) VH: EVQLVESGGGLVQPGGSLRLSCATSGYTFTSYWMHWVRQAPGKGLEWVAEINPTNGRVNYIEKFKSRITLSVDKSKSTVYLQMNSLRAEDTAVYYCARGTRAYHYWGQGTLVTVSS VL: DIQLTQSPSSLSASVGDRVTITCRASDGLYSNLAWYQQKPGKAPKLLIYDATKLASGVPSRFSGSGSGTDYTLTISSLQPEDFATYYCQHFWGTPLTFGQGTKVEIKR	kon	248000

Let us move to another entry and its kon.
Please look up its kon: Fab0062-siRNA conjugate (Fab, V domains shown, siRNA-linker on a reduced cysteine; chain and residue not stated, also called Fab0062 (BLI conjugate columns)) VH: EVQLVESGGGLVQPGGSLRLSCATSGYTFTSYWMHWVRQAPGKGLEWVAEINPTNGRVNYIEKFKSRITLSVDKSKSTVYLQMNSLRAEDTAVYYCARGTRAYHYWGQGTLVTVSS VL: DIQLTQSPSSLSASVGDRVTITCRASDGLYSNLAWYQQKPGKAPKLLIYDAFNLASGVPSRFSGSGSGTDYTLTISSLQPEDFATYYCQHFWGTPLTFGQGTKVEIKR
238000

Reference for the values: patent US20260191981A1
